Taken from the supplement of paper PMC4466140.

- target-entity: ScHof1
- assay-comment: SPOT peptide array binding signal intensity (averaged, normalized) (arbitrary units (background-subtracted, floor 0; scale differs between SH3 domains)); higher = stronger binding of the SH3 domain to the peptide
Label scheme for SPOT peptide array binding signal intensity: lower than 2 is false (0), 2 and above is true (1).

binder: RNNRPVPPPPPMRTT
answer-label: true (1)

binder: QDKEGIPPDQQRLIF
answer-label: false (0)

binder: FFRRSELYLPNSSKA
answer-label: false (0)

binder: QTREPNEPPPPSPAM
answer-label: false (0)

binder: STPQTMRQAPKRPDA
answer-label: false (0)

binder: NFLRLLIGLPSQNEL
answer-label: false (0)

binder: FVLRYYILIPHEQWD
answer-label: false (0)

binder: RPVPRRPSQPLNTLS
answer-label: false (0)

binder: VGFRLALKFPSRITG
answer-label: true (1)

binder: RRARRQMGIPTISQV
answer-label: false (0)

binder: NNFYRPLLRSVLVLL
answer-label: false (0)

binder: PSRRAPLQLPQLVNK
answer-label: false (0)
